A collection of binders and their measured Kd
Target: T1, PfCSP minor repeat region peptide, biotinylated (NVDPNANPNVDPNANPNVDP) (Plasmodium falciparum, biotinylated (end not stated))
T1 peptide: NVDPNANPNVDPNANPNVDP
Test: BLI
Ends that are not written are not given here.
MEASURED METRIC: Kd (µM)

BINDER	MEASURED VALUE
Fab MAM01 (engineered AB000224) (Fab, V domains shown, as the heavy chain of m1 (Fab 224, PDB 6WFY) with the stated framework changes (Kabat numbering); as the light chain of m1 (Fab 224, PDB 6WFY) with the stated changes (Kabat numbering); Fab only; the LS mutations of the Fc are not part of it; also called MS-1797; MAM01 Fab; source: ExpiCHO cells, purified (HiTrap Protein G HP, size exclusion chromatography)) VH: EVQLVESGGGLVQPGRSLRLSCTASGFSFGDHAMSWVRQAPGKGLEWVGFIRKTTYGATTHYAAAVRGRFTISRDDSKSTVYLQMNSLKAEDTAVYFCARVQLDYGPGYQYYGMDVWGQGTTVTVSS VL: QSVLTQPPSVSGAPGQRVTISCTGMNSNIGAGYDVYWYQQLPGTAPKLLIYGNSNRPSGVPDRFSGSRSGTSASLAITGLQAEDEADYYCQSYDTSLNGWAFGGGTKLTVL	0.0035
Fab 7088 (antigen-binding fragment of mAb AB007088) (Fab, V domains shown) VH: QVQLVESGGGVVQPGRSLRLSCAASGFAFNTYGMHWVRQTPGKGLEWVAIIWYDGSQKYYADSVQGRFIISRDNHKNTLSLQMNGLRAEDTAVYFCVRVRFSVGPHGSAFDLWGQGTMVIVSS VL: GVQMTQSPSTLSASVGDRVTLTCRASQSISSWLAWYQQKPGKAPKLLIYDASSLESGVPSRFSGSGSGTEFTLTISSLQPDDFATYYCQQYNSYSFWTFGQGTKVEIK	0.02
Fab MS-1805 (engineered AB007088) (Fab, V domains shown) VH: QVQLVESGGGVVQPGRSLRLSCAASGFTFNTYGMHWVRQAPGKGLEWVAIIWYDGSQKYYADSVQGRFTISRDNHKNTLYLQMNSLRAEDTAVYFCVRVRFSVGPHGSAFDLWGQGTMVTVSS VL: GVQMTQSPSTLSASVGDRVTLTCRASQSISSWLAWYQQKPGKAPKLLIYDASSLESGVPSRFSGSGSGTEFTLTISSLQPDDFATYYCQQYNSYSFWTFGQGTKVEIK	0.028
Fab 224 (antigen-binding fragment of mAb AB000224) (Fab, V domains shown, Fab 224 heavy chain (IGHV3-49) is in PDB 6WFY (cited) and PDB 9NOB (apo, deposited here); Fab 224 light chain (IGLV1-40) is in PDB 6WFY (cited) and PDB 9NOB (apo, deposited here); IGHV3-49/IGLV1-40; the expression methods name only the Fab genes of MAM01, 7088 and MS-1805, not Fab 224) VH: EVQLVESGGGLVQPGRSLRLPCTASGFSFGDHAMSWVRQAPGKGLEWVGFIRKTTYGATTHYAAAVRGRFTISRDDSKSIVYLQMNSLKTEDTAVYFCTRVQLDYGPGYQYYGMDVWGQGTTVTVSS VL: ESVLTQPPSVSGAPGQRVTISCTGMNSNIGAGYDVYWYQQLPGRAPKLLIYGNSNRPSGVPDRFSGSRSGTSASLAITGLQAEDEADYYCQSYDTSLNGWAFGGGTKLTVL	0.0029
